Target: CYP2B6 (Homo sapiens, UniProt P20813)
Sequence (P20813 whole entry): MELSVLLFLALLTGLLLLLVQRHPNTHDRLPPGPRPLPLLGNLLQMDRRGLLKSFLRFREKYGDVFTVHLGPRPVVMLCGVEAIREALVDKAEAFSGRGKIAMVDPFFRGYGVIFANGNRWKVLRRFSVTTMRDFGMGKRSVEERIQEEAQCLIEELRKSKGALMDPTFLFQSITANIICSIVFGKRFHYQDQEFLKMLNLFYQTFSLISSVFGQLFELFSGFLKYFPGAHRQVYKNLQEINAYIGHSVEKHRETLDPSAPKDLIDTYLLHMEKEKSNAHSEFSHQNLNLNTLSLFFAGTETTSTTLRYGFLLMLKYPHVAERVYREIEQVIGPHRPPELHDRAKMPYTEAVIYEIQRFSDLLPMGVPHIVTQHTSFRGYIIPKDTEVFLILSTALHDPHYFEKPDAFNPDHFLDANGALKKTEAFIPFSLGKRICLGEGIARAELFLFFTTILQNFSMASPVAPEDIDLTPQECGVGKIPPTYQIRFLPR
Test: Inhibition of recombinant CYP2B6 (probe bupropion)
Type: in vitro ADME
measured.endpoint: IC50

Please look at this compound and report its IC50: `O=C1CCC[C@@H]2[C@H]3CCCN4CCC[C@@H](CN12)[C@@H]34`
> 100 µM

----------
Kindly state Cmax for each of the entries shown.
Assay: Plasma pharmacokinetics in rats after a 30-min intravenous infusion of Kang-Ai injection
Assay type: in vivo, Sprague–Dawley rats
Conditions: rat, in vivo, iv
One number for each entry, in nM.

compound | Cmax, nM
CC(C)=CCC[C@](C)(O)[C@H]1CC[C@]2(C)[C@@H]1[C@H](O)C[C@@H]1[C@@]3(C)CC[C@H](O)C(C)(C)[C@@H]3[C@@H](O[C@@H]3O[C@H](CO)[C@@H](O)[C@H](O)[C@H]3O[C@@H]3OC[C@@H](O)[C@H](O)[C@H]3O)C[C@]12C [Compound C3, Notoginsenoside R2] | 128

Please look at this compound and report its Cmax: O=C1C=CC[C@@H]2[C@H]3C[C@H](O)CN4CCC[C@@H](CN12)[C@@H]34 [Compound A6, 9α-hydroxysophocarpine]
344

----------
Target: CYP1A2 (Homo sapiens)
Construct: purchased Corning Biosciences 456203
Sequence (P05177 1-516): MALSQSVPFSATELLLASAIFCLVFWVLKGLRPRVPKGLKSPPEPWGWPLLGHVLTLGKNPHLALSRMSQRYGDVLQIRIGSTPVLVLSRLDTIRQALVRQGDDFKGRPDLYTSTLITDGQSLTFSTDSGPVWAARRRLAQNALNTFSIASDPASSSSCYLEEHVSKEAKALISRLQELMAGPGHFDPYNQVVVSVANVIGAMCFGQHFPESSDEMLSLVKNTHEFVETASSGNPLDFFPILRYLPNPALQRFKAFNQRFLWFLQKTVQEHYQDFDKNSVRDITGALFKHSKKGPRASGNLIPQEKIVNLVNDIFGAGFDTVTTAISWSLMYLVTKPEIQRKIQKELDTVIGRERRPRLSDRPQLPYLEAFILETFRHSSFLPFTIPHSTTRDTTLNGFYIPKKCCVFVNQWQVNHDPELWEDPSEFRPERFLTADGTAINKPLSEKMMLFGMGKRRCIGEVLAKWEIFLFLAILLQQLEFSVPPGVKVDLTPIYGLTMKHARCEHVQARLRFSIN
Assay: Inhibition of recombinant CYP1A2 (probe phenacetin)
Assay type: in vitro ADME
Settings: recombinant isozyme; mean ± SD of triplicate; unit not given (IC50 classes in μM); read-out: IC50 towards CYP1A2
Kindly state IC50 for each of the entries shown.

Solved cases below.
compound | IC50
CC(C)=CCC[C@](C)(O[C@@H]1O[C@H](CO)[C@@H](O)[C@H](O)[C@H]1O)[C@H]1CC[C@]2(C)[C@@H]1[C@H](O)C[C@@H]1[C@@]3(C)CC[C@H](O)C(C)(C)[C@@H]3[C@@H](O[C@@H]3O[C@H](CO)[C@@H](O)[C@H](O)[C@H]3O)C[C@]12C [Compound C6, Ginsenoside Rg1] | > 100 µM
CC(C)=CCC[C@](C)(O[C@@H]1O[C@H](CO[C@@H]2O[C@H](CO)[C@@H](O)[C@H](O)[C@H]2O)[C@@H](O)[C@H](O)[C@H]1O)[C@H]1CC[C@]2(C)[C@@H]1[C@H](O)C[C@@H]1[C@@]3(C)CC[C@H](O[C@@H]4O[C@H](CO)[C@@H](O)[C@H](O)[C@H]4O[C@@H]4O[C@H](CO)[C@@H](O)[C@H](O)[C@H]4O)C(C)(C)[C@@H]3CC[C@]12C [Compound D5, Ginsenoside Rb1] | > 100 µM

Turning to the following compound.
Please look at this compound and report its IC50: CC(C)=CCC[C@](C)(O[C@@H]1O[C@H](CO)[C@@H](O)[C@H](O)[C@H]1O)[C@H]1CC[C@]2(C)[C@@H]1[C@H](O)C[C@@H]1[C@@]3(C)CC[C@H](O[C@@H]4O[C@H](CO)[C@@H](O)[C@H](O)[C@H]4O[C@@H]4O[C@H](CO)[C@@H](O)[C@H](O)[C@H]4O)C(C)(C)[C@@H]3CC[C@]12C [Compound D2, Ginsenoside Rd]
> 100 µM

----------
Kindly state Three freeze-thaw cycles (-80 °C ↔ 23 °C), Mean±SD for each of the entries shown.
Experiment: Stability tests of analytes in rat plasma QC samples
Format: in vitro ADME
Details: rat plasma, nominal conc. 20 nM
Method: […] The dilution integrity was investigated by analyzing six replicate samples with each analyte, and each analyte were diluted 10-fold with blank rat matrix. Furthermore, the diluted samples were analyzed using freshly prepared calibration curve to calculate RE and RSD, which should be no more than ± 15% as criterion.
Answers are plain numbers, in nM.

Go through the list and state Three freeze-thaw cycles (-80 °C ↔ 23 °C), Mean±SD for each entry.
1. CC(C)=CCC[C@](C)(O[C@@H]1O[C@H](CO[C@@H]2O[C@H](CO)[C@@H](O)[C@H](O)[C@H]2O)[C@@H](O)[C@H](O)[C@H]1O)[C@H]1CC[C@]2(C)[C@@H]1[C@H](O)C[C@@H]1[C@@]3(C)CC[C@H](O[C@@H]4O[C@H](CO)[C@@H](O)[C@H](O)[C@H]4O[C@@H]4O[C@H](CO)[C@@H](O)[C@H](O)[C@H]4O)C(C)(C)[C@@H]3CC[C@]12C [Compound D5, Ginsenoside Rb1]
2. O=C1C=CC[C@@H]2[C@H]3CCC[N+]4([O-])CCC[C@@H](CN12)[C@@H]34 (stereo partly drawn)
3. CC(C)=CCC[C@](C)(O)[C@H]1CC[C@]2(C)[C@@H]1[C@H](O)C[C@@H]1[C@@]3(C)CC[C@H](O)C(C)(C)[C@@H]3[C@@H](O[C@@H]3O[C@H](CO)[C@@H](O)[C@H](O)[C@H]3O[C@@H]3O[C@@H](C)[C@H](O)[C@@H](O)[C@H]3O)C[C@]12C [Compound C5, Ginsenoside Rg2]

1. 19.99
2. 22.63
3. 21.26

----------
Target: CYP2A6 (Homo sapiens, UniProt P11509)
Sequence (P11509 whole entry): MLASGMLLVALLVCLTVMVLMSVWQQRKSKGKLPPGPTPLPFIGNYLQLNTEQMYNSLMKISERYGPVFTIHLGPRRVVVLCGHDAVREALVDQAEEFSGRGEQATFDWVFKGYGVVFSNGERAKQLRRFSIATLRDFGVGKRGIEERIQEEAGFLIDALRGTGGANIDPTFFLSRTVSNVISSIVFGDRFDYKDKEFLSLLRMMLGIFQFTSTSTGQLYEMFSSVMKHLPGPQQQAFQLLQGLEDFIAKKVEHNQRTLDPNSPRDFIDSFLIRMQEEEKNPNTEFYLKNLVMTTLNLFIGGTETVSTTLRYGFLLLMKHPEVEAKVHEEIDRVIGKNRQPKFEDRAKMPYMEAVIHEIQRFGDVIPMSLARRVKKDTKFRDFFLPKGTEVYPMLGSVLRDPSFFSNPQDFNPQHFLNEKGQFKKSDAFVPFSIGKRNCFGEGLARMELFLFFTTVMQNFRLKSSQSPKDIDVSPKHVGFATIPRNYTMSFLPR
Experiment: Inhibition of recombinant CYP2A6 (probe coumarin)
Format: in vitro ADME
Conditions: recombinant isozyme; mean ± SD of triplicate; unit not given (IC50 classes in μM); read-out: IC50 towards CYP2A6
Kindly state IC50 for each of the entries shown.

Solved cases below.
compound | system.under.test | measured.endpoint | value
CC(C)=CCC[C@](C)(O)[C@H]1CC[C@]2(C)[C@@H]1[C@H](O)C[C@@H]1[C@@]3(C)CC[C@H](O)C(C)(C)[C@@H]3[C@@H](O[C@@H]3O[C@H](CO)[C@@H](O)[C@H](O)[C@H]3O[C@@H]3O[C@H](CO)[C@@H](O)[C@H](O)[C@H]3O)C[C@]12C [Compound C7, Ginsenoside Rf] | CYP2A6 (Homo sapiens, UniProt P11509) | IC50 | > 100 µM
CC(C)=CCC[C@](C)(O[C@@H]1O[C@H](CO)[C@@H](O)[C@H](O)[C@H]1O)[C@H]1CC[C@]2(C)[C@@H]1[C@H](O)C[C@@H]1[C@@]3(C)CC[C@H](O)C(C)(C)[C@@H]3[C@@H](O[C@@H]3O[C@H](CO)[C@@H](O)[C@H](O)[C@H]3O[C@@H]3O[C@@H](C)[C@H](O)[C@@H](O)[C@H]3O)C[C@]12C [Compound C9, Ginsenoside Re] | CYP2A6 (Homo sapiens, UniProt P11509) | IC50 | > 100 µM

Turning to the following compound.
Please look at this compound and report its IC50: CC(C)=CCC[C@](C)(O[C@@H]1O[C@H](CO[C@@H]2O[C@H](CO)[C@@H](O)[C@H](O)[C@H]2O)[C@@H](O)[C@H](O)[C@H]1O)[C@H]1CC[C@]2(C)[C@@H]1[C@H](O)C[C@@H]1[C@@]3(C)CC[C@H](O[C@@H]4O[C@H](CO)[C@@H](O)[C@H](O)[C@H]4O[C@@H]4O[C@H](CO)[C@@H](O)[C@H](O)[C@H]4O)C(C)(C)[C@@H]3CC[C@]12C [Compound D5, Ginsenoside Rb1]
> 100 µM

----------
Kindly state IC50 for each of the entries shown.
Biological target: CYP3A4 (Homo sapiens)
Sequence (P08684 whole entry): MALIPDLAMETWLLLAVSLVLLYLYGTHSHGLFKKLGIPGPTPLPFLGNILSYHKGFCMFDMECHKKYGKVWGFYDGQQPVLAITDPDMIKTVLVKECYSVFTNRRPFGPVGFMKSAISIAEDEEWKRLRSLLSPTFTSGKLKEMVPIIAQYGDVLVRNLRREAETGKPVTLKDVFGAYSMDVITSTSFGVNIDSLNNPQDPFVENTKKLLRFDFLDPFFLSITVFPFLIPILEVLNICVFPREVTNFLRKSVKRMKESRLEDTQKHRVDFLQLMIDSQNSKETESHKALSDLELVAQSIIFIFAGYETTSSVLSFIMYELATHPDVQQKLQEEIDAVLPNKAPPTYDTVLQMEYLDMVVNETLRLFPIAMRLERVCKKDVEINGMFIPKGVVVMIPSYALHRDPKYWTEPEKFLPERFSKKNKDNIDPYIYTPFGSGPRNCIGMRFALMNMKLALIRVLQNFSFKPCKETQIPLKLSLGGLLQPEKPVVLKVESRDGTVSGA
Assay: Inhibition of recombinant CYP3A4 (probe nifedipine)
Format: in vitro ADME
Conditions: recombinant isozyme; mean ± SD of triplicate; unit not given (IC50 classes in μM); read-out: IC50 towards CYP3A4

Solved cases below.
compound | IC50
CC(C)=CCC[C@](C)(O[C@@H]1O[C@H](CO)[C@@H](O)[C@H](O)[C@H]1O)[C@H]1CC[C@]2(C)[C@@H]1[C@H](O)C[C@@H]1[C@@]3(C)CC[C@H](O[C@@H]4O[C@H](CO)[C@@H](O)[C@H](O)[C@H]4O[C@@H]4O[C@H](CO)[C@@H](O)[C@H](O)[C@H]4O)C(C)(C)[C@@H]3CC[C@]12C [Compound D2, Ginsenoside Rd] | 41 µM
CC(C)=CCC[C@](C)(O[C@@H]1O[C@H](CO)[C@@H](O)[C@H](O)[C@H]1O)[C@H]1CC[C@]2(C)[C@@H]1[C@H](O)C[C@@H]1[C@@]3(C)CC[C@H](O)C(C)(C)[C@@H]3[C@@H](O[C@@H]3O[C@H](CO)[C@@H](O)[C@H](O)[C@H]3O)C[C@]12C [Compound C6, Ginsenoside Rg1] | > 100 µM
CC(C)=CCC[C@](C)(O[C@@H]1O[C@H](CO)[C@@H](O)[C@H](O)[C@H]1O)[C@H]1CC[C@]2(C)[C@@H]1[C@H](O)C[C@@H]1[C@@]3(C)CC[C@H](O)C(C)(C)[C@@H]3[C@@H](O[C@@H]3O[C@H](CO)[C@@H](O)[C@H](O)[C@H]3O[C@@H]3O[C@@H](C)[C@H](O)[C@@H](O)[C@H]3O)C[C@]12C [Compound C9, Ginsenoside Re] | > 100 µM

Go through the list and state IC50 for each entry.
1. CC(C)=CCC[C@](C)(O)[C@H]1CC[C@]2(C)[C@@H]1[C@H](O)C[C@@H]1[C@@]3(C)CC[C@H](O)C(C)(C)[C@@H]3[C@@H](O[C@@H]3O[C@H](CO)[C@@H](O)[C@H](O)[C@H]3O[C@@H]3O[C@H](CO)[C@@H](O)[C@H](O)[C@H]3O)C[C@]12C [Compound C7, Ginsenoside Rf]
2. CC(C)=CCC[C@](C)(O[C@@H]1O[C@H](CO[C@@H]2O[C@@H](CO)[C@H](O)[C@H]2O)[C@@H](O)[C@H](O)[C@H]1O)[C@H]1CC[C@]2(C)[C@@H]1[C@H](O)C[C@@H]1[C@@]3(C)CC[C@H](O[C@@H]4O[C@H](CO)[C@@H](O)[C@H](O)[C@H]4O[C@@H]4O[C@H](CO)[C@@H](O)[C@H](O)[C@H]4O)C(C)(C)[C@@H]3CC[C@]12C [Compound D3, Ginsenoside Rc]

> 100 µM
> 100 µM
